Task for the reader: assign each of the following compounds its reported composite z-score.
# Study target: Neurogenic locus notch homolog protein 2 (Homo sapiens) (UniProt Q04721)
# Sequence (Q04721 whole entry, looked up): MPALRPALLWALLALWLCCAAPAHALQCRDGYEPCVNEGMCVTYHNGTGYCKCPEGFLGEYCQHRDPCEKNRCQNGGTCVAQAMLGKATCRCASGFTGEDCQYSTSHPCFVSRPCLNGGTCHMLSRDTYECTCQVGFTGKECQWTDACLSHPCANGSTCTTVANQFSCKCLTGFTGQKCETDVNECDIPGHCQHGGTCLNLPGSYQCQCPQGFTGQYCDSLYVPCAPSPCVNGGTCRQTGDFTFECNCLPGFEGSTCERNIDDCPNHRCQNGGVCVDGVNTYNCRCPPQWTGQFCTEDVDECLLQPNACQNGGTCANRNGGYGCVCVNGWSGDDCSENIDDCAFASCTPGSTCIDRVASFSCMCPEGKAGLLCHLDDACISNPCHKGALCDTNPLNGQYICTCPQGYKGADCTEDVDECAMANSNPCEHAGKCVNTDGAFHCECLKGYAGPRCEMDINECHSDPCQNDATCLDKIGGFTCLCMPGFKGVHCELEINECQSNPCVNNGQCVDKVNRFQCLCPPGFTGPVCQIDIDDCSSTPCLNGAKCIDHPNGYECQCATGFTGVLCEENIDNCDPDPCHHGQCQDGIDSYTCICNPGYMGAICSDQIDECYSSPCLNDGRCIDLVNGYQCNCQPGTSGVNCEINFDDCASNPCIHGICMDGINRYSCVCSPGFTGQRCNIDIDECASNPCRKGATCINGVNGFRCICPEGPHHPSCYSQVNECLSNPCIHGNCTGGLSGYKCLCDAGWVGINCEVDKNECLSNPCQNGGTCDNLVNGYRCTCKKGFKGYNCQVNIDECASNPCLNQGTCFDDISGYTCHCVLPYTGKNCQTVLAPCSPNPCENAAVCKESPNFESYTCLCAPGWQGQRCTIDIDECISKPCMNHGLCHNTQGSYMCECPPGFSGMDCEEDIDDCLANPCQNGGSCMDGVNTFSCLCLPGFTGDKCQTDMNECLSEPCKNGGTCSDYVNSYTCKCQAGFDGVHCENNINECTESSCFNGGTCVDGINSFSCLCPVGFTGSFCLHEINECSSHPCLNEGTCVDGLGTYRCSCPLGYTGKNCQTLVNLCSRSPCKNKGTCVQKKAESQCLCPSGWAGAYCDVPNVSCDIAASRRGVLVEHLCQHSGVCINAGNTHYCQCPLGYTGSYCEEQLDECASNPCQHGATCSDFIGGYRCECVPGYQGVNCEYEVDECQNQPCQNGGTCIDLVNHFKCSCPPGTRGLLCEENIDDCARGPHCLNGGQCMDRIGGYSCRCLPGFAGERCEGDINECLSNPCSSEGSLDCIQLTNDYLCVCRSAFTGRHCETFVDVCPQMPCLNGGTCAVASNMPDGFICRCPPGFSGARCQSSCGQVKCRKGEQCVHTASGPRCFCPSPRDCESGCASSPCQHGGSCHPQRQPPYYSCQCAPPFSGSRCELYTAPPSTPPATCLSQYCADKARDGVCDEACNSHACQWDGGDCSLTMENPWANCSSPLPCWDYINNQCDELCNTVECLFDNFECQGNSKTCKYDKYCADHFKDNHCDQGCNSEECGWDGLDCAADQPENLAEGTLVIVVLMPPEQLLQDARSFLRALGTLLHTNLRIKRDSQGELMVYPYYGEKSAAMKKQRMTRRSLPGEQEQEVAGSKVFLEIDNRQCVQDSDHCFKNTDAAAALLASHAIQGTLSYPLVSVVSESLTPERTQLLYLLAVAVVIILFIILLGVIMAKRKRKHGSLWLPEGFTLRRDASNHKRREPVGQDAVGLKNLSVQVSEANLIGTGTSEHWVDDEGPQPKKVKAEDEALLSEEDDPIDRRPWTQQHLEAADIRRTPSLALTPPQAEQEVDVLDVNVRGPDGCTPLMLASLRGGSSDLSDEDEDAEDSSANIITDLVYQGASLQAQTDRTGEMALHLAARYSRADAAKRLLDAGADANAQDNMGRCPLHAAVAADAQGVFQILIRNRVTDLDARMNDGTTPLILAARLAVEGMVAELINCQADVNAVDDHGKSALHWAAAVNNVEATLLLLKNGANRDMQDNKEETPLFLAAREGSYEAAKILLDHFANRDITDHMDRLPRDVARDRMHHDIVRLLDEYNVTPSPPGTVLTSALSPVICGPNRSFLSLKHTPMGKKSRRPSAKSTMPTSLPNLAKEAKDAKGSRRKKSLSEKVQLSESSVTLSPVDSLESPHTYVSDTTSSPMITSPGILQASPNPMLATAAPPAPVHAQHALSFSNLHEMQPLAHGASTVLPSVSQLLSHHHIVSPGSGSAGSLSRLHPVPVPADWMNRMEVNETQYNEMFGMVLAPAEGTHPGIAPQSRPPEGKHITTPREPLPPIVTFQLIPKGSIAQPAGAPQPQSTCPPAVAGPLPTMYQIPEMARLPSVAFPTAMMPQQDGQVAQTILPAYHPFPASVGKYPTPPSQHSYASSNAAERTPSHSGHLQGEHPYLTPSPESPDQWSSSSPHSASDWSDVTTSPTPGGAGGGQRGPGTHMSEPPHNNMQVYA
# Assay text: small molecules binding Notch2 protein – biochemical, small-molecule microarray, 635 nm fluorescence, stem cell growth factors, primary screen (AID 1073)
# Condition description: higher = more signal

input: Quick check: composite z-score of NC(=O)N1C(=O)C2C(C1=O)C1C=C(CCCO)C2C(C2CC2)N1Cc1sc2ccccc2c1Cl (stereo not drawn) ?
output: 0.481

input: And what about the compound Cc1ccc(F)cc1S(=O)(=O)N[C@H]1CCN(Cc2ccc(OC(C)C)cc2)C1 ?
output: -0.563

input: And what about the compound Cc1ccc(S[C@]2(C(=O)NCC(F)(F)F)CC(=O)N(Cc3ccccc3C(F)(F)F)[C@@H]2c2ccc(CO)cc2)cc1 ?
output: -1.14

input: And what about the compound CC(C)NC(=O)[C@@]1(C)c2ccccc2C(=O)N(Cc2ccccc2)[C@H]1c1ccc(CO)cc1 ?
output: -1.12

input: And what about the compound COc1ccc([Si](C)(C)[C@H]2[C@H](CCO)O[C@@]3(C(=O)N(Cc4cccc(N(C=O)c5ccccc5)c4)c4ccccc43)[C@@H]2C)cc1 ?
output: 1.14

input: And what about the compound CN(C)CCCCNC(=O)[C@H]1C[C@H]2C(=O)NCC(=O)N2[C@H]1c1ccc(O)cc1 ?
output: -0.929

input: And what about the compound CC(C)C[C@H]1NC(=O)C([C@@H](C)OCc2ccccc2)NC(=O)[C@@]23C(=O)N[C@@H](Cc4ccccc4)C2[C@H](C)[C@@]2(C)O[C@H]2C3/C=C/C/C=C\CNC1=O (stereo partly drawn) ?
output: 0.831

input: And what about the compound C=C(C)[C@@H]1CC=C(C(O)C2C=CC3C(=O)N(C)C(=O)C3N2Nc2ccc([N+](=O)[O-])cc2[N+](=O)[O-])CC1 (stereo partly drawn) ?
output: 1.68

input: And what about the compound C=CCNC(=O)[C@H]1[C@@H]2C(=O)O[C@@H](c3ccccc3)[C@@H](c3ccccc3)N2[C@@H](c2ccccc2OCCO)[C@]12C(=O)N(C(=O)OCCOC)c1ccc(C#Cc3ccc(OC)cc3)cc12 ?
output: 0.615

input: And what about the compound COCCCNC(=O)[C@@]1(Sc2ccc(C)cc2)CC(=O)N(Cc2ccccc2C(F)(F)F)[C@@H]1c1ccc(CO)cc1I ?
output: -1.8

input: And what about the compound CCOC(=O)C[C@H]1[C@H](OC(=O)Cc2ccc3c(c2)OCO3)[C@@H](NC(=O)c2ccc3ccccc3n2)c2cc(OCCCO)ccc2N1C(=O)Cc1ccc(OC)cc1 ?
output: 0.761

input: And what about the compound COc1ccc([Si](C)(C)[C@H]2[C@H](CC(=O)N3CCC[C@H]3CO)O[C@@]3(C(=O)N(Cc4ccc(N5CCCCC5=O)cc4)c4ccccc43)[C@@H]2C)cc1 ?
output: 0.565

input: And what about the compound C=C(COC)C(=O)CC[C@@H](OC(=O)c1ccccc1-c1ccccc1C(=O)O)c1ccc(OCCO)cc1 ?
output: -0.638
